biological target: GST-MSI2 (full-length human MSI2) (Homo sapiens); construct: full-length, N-terminal GST-Flag tag kept (pGEX6P3), expressed in E. coli BL21(DE3); assay: microscale thermophoresis; type: binding; settings: NT647-labelled protein, 50 mM HEPES, 100 mM NaCl, 0.05% Tween-20, pH 7.4, RT; no interaction detected up to 500 μM
Sequence (Q96DH6 whole entry): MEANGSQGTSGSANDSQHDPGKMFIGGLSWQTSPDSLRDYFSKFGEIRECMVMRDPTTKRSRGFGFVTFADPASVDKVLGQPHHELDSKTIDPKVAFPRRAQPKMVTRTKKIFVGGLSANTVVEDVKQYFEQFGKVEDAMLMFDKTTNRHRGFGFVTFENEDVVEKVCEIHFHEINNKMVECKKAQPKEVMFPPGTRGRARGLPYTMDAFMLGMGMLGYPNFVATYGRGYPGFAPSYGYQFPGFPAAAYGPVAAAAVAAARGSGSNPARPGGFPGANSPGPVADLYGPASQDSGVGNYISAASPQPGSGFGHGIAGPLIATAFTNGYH
Readout Name: Kd

[
  {
    "Query Smiles": "CC(=O)Nc1ccc2nc3c(=O)n(C)c(=O)n(C)c3nc2c1",
    "Result": "> 500 µM"
  }
]
